SUBJECT OF TEST: xanthine oxidase (XO) (Bos taurus, UniProt P80457)
Sequence (P80457 2-1332): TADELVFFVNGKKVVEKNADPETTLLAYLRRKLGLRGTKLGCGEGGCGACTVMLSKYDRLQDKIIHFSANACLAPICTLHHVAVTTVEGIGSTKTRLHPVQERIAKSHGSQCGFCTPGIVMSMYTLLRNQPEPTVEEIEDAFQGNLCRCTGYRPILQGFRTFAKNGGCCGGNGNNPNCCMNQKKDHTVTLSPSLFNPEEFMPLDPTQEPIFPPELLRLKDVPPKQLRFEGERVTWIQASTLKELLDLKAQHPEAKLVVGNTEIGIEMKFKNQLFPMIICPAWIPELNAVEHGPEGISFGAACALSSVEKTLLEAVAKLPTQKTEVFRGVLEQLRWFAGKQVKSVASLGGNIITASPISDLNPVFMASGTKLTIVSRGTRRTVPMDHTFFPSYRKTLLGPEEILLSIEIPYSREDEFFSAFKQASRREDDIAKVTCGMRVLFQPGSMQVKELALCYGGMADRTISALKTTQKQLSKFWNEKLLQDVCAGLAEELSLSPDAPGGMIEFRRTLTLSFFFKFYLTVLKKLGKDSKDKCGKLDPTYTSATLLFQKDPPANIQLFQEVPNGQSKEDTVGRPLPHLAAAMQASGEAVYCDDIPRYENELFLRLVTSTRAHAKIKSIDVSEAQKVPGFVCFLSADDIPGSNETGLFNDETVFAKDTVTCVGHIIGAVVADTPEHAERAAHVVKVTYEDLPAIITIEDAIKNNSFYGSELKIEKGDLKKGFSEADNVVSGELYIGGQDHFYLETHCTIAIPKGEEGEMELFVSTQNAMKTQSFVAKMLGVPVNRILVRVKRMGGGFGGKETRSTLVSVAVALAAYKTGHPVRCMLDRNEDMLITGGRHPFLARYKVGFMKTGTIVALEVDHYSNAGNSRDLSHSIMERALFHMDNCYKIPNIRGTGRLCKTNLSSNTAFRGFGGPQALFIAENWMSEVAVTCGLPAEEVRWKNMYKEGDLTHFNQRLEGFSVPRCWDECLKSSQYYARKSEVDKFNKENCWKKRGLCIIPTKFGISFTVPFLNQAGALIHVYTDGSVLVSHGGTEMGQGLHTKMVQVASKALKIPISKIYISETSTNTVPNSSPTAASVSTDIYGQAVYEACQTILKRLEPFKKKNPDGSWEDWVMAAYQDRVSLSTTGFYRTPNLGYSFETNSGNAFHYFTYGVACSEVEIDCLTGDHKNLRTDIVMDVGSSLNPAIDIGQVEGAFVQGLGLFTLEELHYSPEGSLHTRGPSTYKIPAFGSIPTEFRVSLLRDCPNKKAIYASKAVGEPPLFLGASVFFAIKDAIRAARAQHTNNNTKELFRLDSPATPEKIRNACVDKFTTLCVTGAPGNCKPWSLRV
TEST SUMMARY: SPR (Biacore T200, CM5 chip, immobilised XO, steady-state analysis); also lowers uric acid production by purified XO (UHPLC-MS)
OBSERVABLE: pKd
Lab note — pKd values are minus log10 of concentrations in M.

Item OC[C@H]1O[C@@H](Oc2cc3c(O)cc(O)cc3[o+]c2-c2cc(O)c(O)c(O)c2)[C@H](O)[C@@H](O)[C@@H]1O [Dp-3G, delphinidin-3-glucoside] : provide pKd
6.60

Entry source: paper PMC12869243
